Source: PubChem BioAssay (NCI)

Exercise: state measured GI50 for each of the molecules provided.
system: NCI-H23 lung; assay: NCI tumour cell line growth inhibition, 48 h

Illustrative cases are given below, each with its answer.
1) C=CCC1(O)c2ccccc2C(=O)c2c(OCC(=O)OCC)ccc(OCC(=O)OCC)c21 (configuration not stated) : > 100 µM
2) O=C(/C=C\c1ccc(O)c(O)c1)c1ccccc1O : 12.7 µM
3) COc1cc(/C=C2\CC3C4CC=C5CC(OC(C)=O)CC[C@]5(C)C4CC[C@]3(C)C2=O)ccc1OCCN1CCCC1 (some centres not stated) : 14.2 µM
4) C/C(=C\C(=O)O[C@H]1[C@@H]2[C@H](C)CC[C@H]2[C@]2(C)O[C@@]1(C1CCCCC1)C[C@H]2OC(=O)CO)c1ccccc1 : 6.87 µM

Each of the following entries comes with a recorded value; kindly state GI50 for each.
1. CN(C)CCNC(=O)c1cc2c3cc(Cl)ccc3[nH]c2c2ncccc12
2. Cn1cc(-c2ccc3nc(-c4ccc(CC(=O)Nc5cc(C(C)(C)C)no5)cc4)cnc3c2)cn1

**A:**
1: 6.31 µM; 2: 0.895 µM

**Q:** Need GI50, item Nc1c(C(=O)Nc2cccc(Cl)c2)sc2nc3c(cc12)C(=O)CCC3
**A:** 0.751 µM
